Measured % inhibition of IgE binding, listed per entry for reference.
Biological target: T1, Ara h 2 (peanut, UniProt Q6PSU2 22-172)
T1 construct: also called full length Ara h 2
T1 sequence (looked up): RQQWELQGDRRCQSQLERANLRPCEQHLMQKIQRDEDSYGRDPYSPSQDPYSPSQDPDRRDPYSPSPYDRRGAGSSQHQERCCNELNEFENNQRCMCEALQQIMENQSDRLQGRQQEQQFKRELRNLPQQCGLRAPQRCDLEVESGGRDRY
Test: competition ELISA on coated Ara h 2; competitor: Patient E serum IgE
// return numeric value only (unit: %, not printed)

Example entries and their recorded answers appear below.
{"binder": "h4B2 (antibody, V domains shown, Recombinant human IgG; also called hMAb 4B2) VH: QVQLQEAGPRLVKPSQTLSVTCTVSGASITIGGYYWSWIRQHPGKGLEWMGYIYSNGRTYYNPSLKSRIAMSIDTSKNQFSLKLTSVTAADTAIYFCAREAWETPLWGQGTLITVSS VL: DIQMTQSPSSLSASVGDRVTITCQANQDIVNSLNWFQHKPGTAPKVLIYDASKLETGVPSRFSGSGSGTHFTFTISGLQPEDFATYFCQQYENLPHTFGQGTKLEIR", "endpoint": "% inhibition of IgE binding", "unit_spec": "%", "result_value": 21.9}
{"binder": "h37D5 (antibody, V domains shown, Recombinant human IgG; also called hMAb 37D5) VH: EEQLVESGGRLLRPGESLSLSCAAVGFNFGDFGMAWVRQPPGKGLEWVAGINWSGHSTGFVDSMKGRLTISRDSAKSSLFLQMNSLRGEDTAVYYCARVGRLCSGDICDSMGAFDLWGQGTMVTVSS VL: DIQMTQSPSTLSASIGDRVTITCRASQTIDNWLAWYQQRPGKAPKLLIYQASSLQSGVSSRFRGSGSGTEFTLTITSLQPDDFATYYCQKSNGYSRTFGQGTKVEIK", "endpoint": "% inhibition of IgE binding", "unit_spec": "%", "result_value": 29.3}
{"binder": "h32B10 (antibody, V domains shown, Recombinant human IgG; also called hMAb 32B10) VH: QVQLVQSGAEVKKPGASVKVSCRASGYIFRNFDINWVRQATGQGLEWMGWMSPKSGDTGYAQKFQGRVTMTRDTSINTAYMELSSLTSEDSAVYYCARGVDGTNWGQGTRVTVSS VL: DIVMTQSPDSLGVSLGERATISCKSSQSILDNSNNKNFIAWFQQKPGQPPKLLIYWASARESGVPDRFSGSGSGTEFTLTINSLQAEDVAVYYCYQYYSTPHTFGQGTKLDLR", "endpoint": "% inhibition of IgE binding", "unit_spec": "%", "result_value": 29.3}

Here is another binder to look at.
Consider the binder h12G10 (antibody, human IgG1, V domains shown, Recombinant human IgG; also called hMAb 12G10) VH: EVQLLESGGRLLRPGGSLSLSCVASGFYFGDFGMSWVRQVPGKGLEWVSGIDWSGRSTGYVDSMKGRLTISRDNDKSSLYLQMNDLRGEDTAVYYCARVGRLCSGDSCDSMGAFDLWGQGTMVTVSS VL: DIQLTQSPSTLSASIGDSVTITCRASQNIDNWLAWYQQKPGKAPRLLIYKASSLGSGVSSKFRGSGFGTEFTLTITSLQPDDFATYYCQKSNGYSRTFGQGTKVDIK and give its measured % inhibition of IgE binding.
36.2
